Tested on: 786-0
Assay: NCI tumour cell line growth inhibition, 48 h
Active and inactive are the calls of the source. Rule as the data show it: active = GI50 up to about 1.1 µM and inactive = higher.
Assignment: determine reported GI50 for the given compounds.

Inquiry: Form field: reported GI50 of `NCCSc1nc2ccccc2s1`
Reply text: 26.6 µM (inactive)

Inquiry: Form field: reported GI50 of `COC(=O)C1=C(C)NC(C)=C(C(=O)OC)C1c1ccccc1NO`
Reply text: > 100 µM (inactive)

Inquiry: Form field: reported GI50 of `N=C(N)NS(=O)(=O)c1ccc(Nc2c3ccccc3nc3c(C(=O)N4CCN(CCO)CC4)cccc23)cc1`
Reply text: > 100 µM (inactive)

====

Test system: K562
Assay: NCI tumour cell line growth inhibition, 48 h
Where a name gives a salt, the structure may show the parent alone. The source made the active and inactive calls. Rule as the data show it: active = GI50 up to about 1.1 µM and inactive = higher.
The reply should name one outcome from y for active, n for inactive

Inquiry: Hi team, can someone confirm the assay call for COc1cc2c3c(c1OC)-c1ccccc1C(C(O)c1ccccc1)C3N(C)CC2 (centres undefined) ?
Reply text: n

Inquiry: Hi team, can someone confirm the assay call for `Cc1cn(CCCCCCC2=NCCCN2)c(=O)[nH]c1=O` ?
Reply text: n

Inquiry: Hi team, can someone confirm the assay call for `CC(=O)O/N=C/c1cc2c(cc1Br)OCO2` ?
Reply text: n

Inquiry: Hi team, can someone confirm the assay call for `COc1ccc(C(=O)/C=C/c2ccncc2)cc1OC` ?
Reply text: n

Inquiry: Hi team, can someone confirm the assay call for `COc1ccc2[nH]cc(CCNC(=O)[C@H](Cc3ccccc3)NC(=O)[C@@H](NCC(F)(F)F)C(C)C)c2c1` ?
Reply text: n

Inquiry: Hi team, can someone confirm the assay call for COC(=O)[C@@]1(C)CCC[C@]2(C(=O)O)C3Cc4occc4[C@H](C)[C@@H]3CCC21 (some centres undefined) ?
Reply text: n

Inquiry: Hi team, can someone confirm the assay call for `Cc1nc2c(o1)/C(=N\c1ccccc1)c1ccccc1/C2=N/c1ccccc1` ?
Reply text: n

Inquiry: Hi team, can someone confirm the assay call for `O=CNNC(=O)CSc1nc2ccc(I)cc2c(=O)n1Cc1ccccc1` ?
Reply text: n

Inquiry: Hi team, can someone confirm the assay call for `Cc1ccc(C(=O)/C(C#N)=C/Nc2c(C)n(C)n(-c3ccccc3)c2=O)cc1` ?
Reply text: n

Inquiry: Hi team, can someone confirm the assay call for `CCN(CC)CCOCCn1c2c(c3ccccc31)CCCC2` ?
Reply text: n

Inquiry: Hi team, can someone confirm the assay call for Cc1cc2nc3ccc(N(C)C)cc3[s+]c2cc1N [TOLONIUM CHLORIDE] ?
Reply text: n

Inquiry: Hi team, can someone confirm the assay call for `O=C(O)CCSCCCN1C(=O)c2ccccc2C1=O` ?
Reply text: n

Inquiry: Hi team, can someone confirm the assay call for `COc1ccc2oc(=O)c(-c3cc4c(c(C)n3)c(=O)oc3ccc(OC)cc34)cc2c1` ?
Reply text: n

Inquiry: Hi team, can someone confirm the assay call for `N#C/N=C(/N)NCO` ?
Reply text: n

Inquiry: Hi team, can someone confirm the assay call for `N/C(=N\Nc1nc2cc([N+](=O)[O-])ccc2o1)c1ccccn1` ?
Reply text: y

Inquiry: Hi team, can someone confirm the assay call for N=C(N)c1ccc(-c2ccc(-c3ccc(C(=N)N)cc3)o2)cc1 [FURAMIDINE HYDROCHLORIDE] ?
Reply text: n

Inquiry: Hi team, can someone confirm the assay call for `O=C(O)c1c2c(cc3c(=O)cc(-c4ccccc4)oc13)CCCC2` ?
Reply text: n

Inquiry: Hi team, can someone confirm the assay call for CCCC/C=C1\CCC(CN2CCOCC2)C1=O (centres undefined) ?
Reply text: n

Inquiry: Hi team, can someone confirm the assay call for O=C1c2ccccc2C(=O)N1CCSCC(CO)SCCN1C(=O)c2ccccc2C1=O (centres undefined) ?
Reply text: n

Inquiry: Hi team, can someone confirm the assay call for `N=C(N)NS(=O)(=O)c1ccc(Nc2c3ccccc3nc3c(C(=O)N4CCN(CCO)CC4)cccc23)cc1` ?
Reply text: n

Inquiry: Hi team, can someone confirm the assay call for `C[N+](C)(CCNC(=O)c1cccc2cc3ccccc3nc12)Cc1ccc([N+](=O)[O-])s1` ?
Reply text: n

Inquiry: Hi team, can someone confirm the assay call for `CCOC(=O)c1ccc(NCc2ccc3nc(OC)c(OC)nc3c2)cc1` ?
Reply text: n

Inquiry: Hi team, can someone confirm the assay call for `C#Cc1c(C)c(/C=C/C(C)=C/C=C/C(C)=C/C(=O)OC)n(C)c1C` ?
Reply text: n

Inquiry: Hi team, can someone confirm the assay call for `CCn1c2ccccc2c2ccc(C3C(C(=O)OC)=C(C)NC(C)=C3C(=O)OC)cc21` ?
Reply text: n
